system: PPARa:RXRa (NR concentration 270 nM, RXRa partner concentration 90 nM); assay: PBM binding z-score (relative to random genomic background probes); higher = stronger binding; sequences stand for … in GC…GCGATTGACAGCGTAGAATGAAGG
Measured PBM binding z-score of individual entries
observable: PBM binding z-score

[[record]]
sequenceinput = "ATCGAAAGGTCGAGGCGAGTATAGAGAAAGGGAA"
measuredresult = 4.47

[[record]]
sequenceinput = "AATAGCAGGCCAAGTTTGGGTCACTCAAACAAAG"
measuredresult = 1.72

[[record]]
sequenceinput = "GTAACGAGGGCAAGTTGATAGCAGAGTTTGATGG"
measuredresult = 1.9

[[record]]
sequenceinput = "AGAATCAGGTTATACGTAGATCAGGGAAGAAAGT"
measuredresult = 1.63

[[record]]
sequenceinput = "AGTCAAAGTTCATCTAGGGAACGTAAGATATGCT"
measuredresult = 4.69

[[record]]
sequenceinput = "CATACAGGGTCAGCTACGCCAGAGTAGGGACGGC"
measuredresult = 4.28

[[record]]
sequenceinput = "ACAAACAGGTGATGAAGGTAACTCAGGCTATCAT"
measuredresult = 0.415

[[record]]
sequenceinput = "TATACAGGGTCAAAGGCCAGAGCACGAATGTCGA"
measuredresult = 5.83

[[record]]
sequenceinput = "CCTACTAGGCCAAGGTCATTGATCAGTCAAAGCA"
measuredresult = 4.66

[[record]]
sequenceinput = "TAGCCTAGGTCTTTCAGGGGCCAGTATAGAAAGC"
measuredresult = -0.263

[[record]]
sequenceinput = "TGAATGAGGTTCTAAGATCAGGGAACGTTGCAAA"
measuredresult = -0.344

[[record]]
sequenceinput = "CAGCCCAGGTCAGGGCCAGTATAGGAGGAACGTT"
measuredresult = 2.27

